assayed system: UniProt P37231
Sequence (P37231 223-505 limits assumed): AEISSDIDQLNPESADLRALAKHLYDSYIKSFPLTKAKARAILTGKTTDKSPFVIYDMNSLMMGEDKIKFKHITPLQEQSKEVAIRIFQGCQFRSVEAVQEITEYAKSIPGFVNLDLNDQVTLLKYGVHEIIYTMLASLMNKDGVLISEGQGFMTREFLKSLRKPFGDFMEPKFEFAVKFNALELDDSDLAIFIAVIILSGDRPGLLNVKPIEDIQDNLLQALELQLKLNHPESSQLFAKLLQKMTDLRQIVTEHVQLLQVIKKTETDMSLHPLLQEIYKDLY
quantity kind: IC50

Problem: Please give the documented IC50 of O=C(Nc1ccccc1)c1cc([N+](=O)[O-])ccc1Cl
Result: 4.52 nM

* * *

assayed system: UniProt:Q03181
Sequence (Q03181 171-441 limits assumed): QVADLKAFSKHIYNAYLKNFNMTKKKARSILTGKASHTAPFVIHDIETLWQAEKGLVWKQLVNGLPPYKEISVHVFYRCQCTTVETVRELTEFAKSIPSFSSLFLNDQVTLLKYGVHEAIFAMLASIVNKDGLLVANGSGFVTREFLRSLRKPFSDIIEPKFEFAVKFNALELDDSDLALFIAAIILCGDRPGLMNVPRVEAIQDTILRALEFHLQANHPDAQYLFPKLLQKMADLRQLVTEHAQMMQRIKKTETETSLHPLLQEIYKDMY
quantity kind: pIC50
Note on units: pIC50 is unitless, being -log10 of a concentration expressed in mol/L.

Problem: Please give the documented pIC50 of CC(C)(C)c1ccc(-c2nc(CBr)nn2-c2cccc(O)c2)cc1
Result: 4.32

* * *

assayed system: PPARα (Homo sapiens, UniProt Q07869)
Sequence (Q07869 196-468 limits assumed): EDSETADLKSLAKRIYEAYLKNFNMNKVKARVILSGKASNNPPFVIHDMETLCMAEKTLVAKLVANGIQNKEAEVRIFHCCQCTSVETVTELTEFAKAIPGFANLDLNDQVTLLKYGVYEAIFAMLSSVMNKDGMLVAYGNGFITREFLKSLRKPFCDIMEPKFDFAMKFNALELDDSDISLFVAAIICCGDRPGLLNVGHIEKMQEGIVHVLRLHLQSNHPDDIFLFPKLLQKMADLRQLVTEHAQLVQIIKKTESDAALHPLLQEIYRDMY
quantity kind: IC50 (µM)
Form entry: value (µM) — number only.

Problem: Find the measured IC50 of CC(C)(C)c1ccc(-c2nc(CBr)nn2-c2cccc(O)c2)cc1 [MM902] with PPARα (Homo sapiens, UniProt Q07869) as test system.
Result: 46

Reference source: paper PMC7719157
